Cited source: patent US20240132603A1

molecular target: T1, cynomolgus monkey CCR8 (cynomolgus monkey, UniProt G7NYJ2 1-355); experiment: FACS, CHO-K1-CynoCCR8 cells
T1 construct: whole, on cells; also called CynoCCR8
T1 sequence (G7NYJ2 entry or part of it): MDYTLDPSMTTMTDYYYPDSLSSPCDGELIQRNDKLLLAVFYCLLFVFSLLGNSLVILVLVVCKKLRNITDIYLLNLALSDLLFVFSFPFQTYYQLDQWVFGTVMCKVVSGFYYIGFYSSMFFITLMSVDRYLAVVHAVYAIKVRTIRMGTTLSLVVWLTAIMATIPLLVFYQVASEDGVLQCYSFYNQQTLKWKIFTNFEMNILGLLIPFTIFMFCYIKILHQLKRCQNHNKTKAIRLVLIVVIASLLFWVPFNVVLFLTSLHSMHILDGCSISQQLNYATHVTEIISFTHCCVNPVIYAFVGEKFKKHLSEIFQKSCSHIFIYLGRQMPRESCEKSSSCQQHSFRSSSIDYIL
REPORTED PROPERTY: pEC50
Give bare numbers, as −log10 of the molar value.

PR004522 (antibody, human IgG1, kappa, V domains shown, humanized variant of PR004128, IgG1 with DE mutation) VH: EVQLVESGGGLVKPGGSLRLSCAASGFTFNTYAMNWVRQAPGKGLEWVGRIRSKSNNYATYYADSVKDRFTISRDDSKSTLYLQMNSLKTEDTAVYYCVRGKENGNYYAMDFWGQGTTVTVSS VL: DIVMTQSPLSLPVTPGEPASISCRSSKSLLHSNGNTYLYWFLQKPGQSPQLLIYRMSNLASGVPDRFSGSGSGTDFTLKISRVEAEDVGVYYCMQHLEYPLTFGQGTKLEIKR : 8.23
PR004527 (antibody, human IgG1, kappa, V domains shown, humanized variant of PR004128, IgG1 with DE mutation) VH: EVQLVESGGGLVQPGGSLKLSCAASGFTFNTYAMNWVRQASGKGLEWVGRIRSKSNNYATYYADSVKDRFTISRDDSKSTLYLQMNSLKTEDTAVYYCVRGKENGNYYAMDFWGQGTTVTVSS VL: DIVMTQSPLSLPVTLGQPASISCRSSKSLLHSNGKIYLYWFQQRPGQSPRLLIYRMSNLASGVPDRFSGSGSGTDFTLKISRVEAEDVGVYYCMQHLEYPLTFGQGTKLEIKR : 8.13
PR004519 (antibody, human IgG1, kappa, V domains shown, humanized variant of PR004128, IgG1 with DE mutation) VH: EVQLVESGGGLVKPGGSLRLSCAASGFTFNTYAMNWVRQAPGKGLEWVGRIRSKSNNYATYYADSVKDRFTISRDDSKSTLYLQMNSLKTEDTAVYYCVRGKENGNYYAMDFWGQGTTVTVSS VL: DIVMTQSPLSLPVTPGEPASISCRSSKSLLHSNGKIYLYWFLQKPGQSPQLLIYRMSNLASGVPDRFSGSGSGTDFTLKISRVEAEDVGVYYCMQHLEYPLTFGQGTKLEIKR : 8.38

Turning now to a further record.
Reported pEC50 ( PR004524 (antibody, human IgG1, kappa, V domains shown, humanized variant of PR004128, IgG1 with DE mutation) VH: EVQLVESGGGLVQPGGSLKLSCAASGFTFNTYAMNWVRQASGKGLEWVGRIRSKSNNYATYYADSVKDRFTISRDDSKSTLYLQMNSLKTEDTAVYYCVRGKENGNYYAMDFWGQGTTVTVSS VL: DIVMTQSPLSLPVTPGEPASISCRSSKSLLHSNGNTYLYWFLQKPGQSPQLLIYRMSNLASGVPDRFSGSGSGTDFTLKISRVEAEDVGVYYCMQHLEYPLTFGQGTKLEIKR ) = 8.32
